biological target: FOXO3a-DBD S253D (Homo sapiens, UniProt O43524 158-253, S253D); assay: fluorescence anisotropy
Sequence (O43524 158-253 S253D): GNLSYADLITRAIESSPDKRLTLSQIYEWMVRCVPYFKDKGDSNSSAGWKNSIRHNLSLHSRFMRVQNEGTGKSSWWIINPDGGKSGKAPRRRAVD
reported.endpoint: Kd (nM)
Reply with just the number (in nM).

Request: Data request, read-out Kd, for 26-bp FOXO consensus FA duplex (dsDNA) DNA 1: CGCATCCTATGTAAACAACTCGAGTC DNA 2: GACTCGAGTTGTTTACATAGGATGCG
Response: 549
